Tested on: cortical neuron cells
Experiment: Protective effect on iron-induced neuronal cell injury (LDH release)
Format: cell-based
Details: 30 μM compound; FeSO4 50 μM, 24 hours; LDH reduction vs control
For each entry below, report its protective effect on neuron cell: Inhibition (%, 30 μM compound addition) value.

These solved cases illustrate the format of a correct answer.
COC(OC)[C@@]1(C)Oc2ccc(N)cc2[C@@H](N(Cc2nnn(C)n2)c2ccc(OC(F)(F)F)cc2)[C@@H]1O [Example 81] | 120%
COC(OC)[C@@]1(C)Oc2ccc(N)cc2[C@H](N(Cc2nnn(C)n2)c2ccc(C(F)(F)F)cc2)[C@H]1O [Example 34] | 111%
COC(OC)[C@@]1(C)Oc2ccc(N)cc2[C@H](N(Cc2nnn(C)n2)c2cc(C)ccc2O)[C@H]1O [Example 71] | 89%
COC(OC)[C@]1(C)Oc2ccc(N)cc2[C@H](N(Cc2nnn(C)n2)c2ccc(C(F)(F)F)cc2)[C@H]1O [Example 79] | 107%
COC(OC)[C@@]1(C)Oc2ccc([N+](=O)[O-])cc2[C@H](N(Cc2nnn(C)n2)c2ccc(OC(F)(F)F)cc2)[C@H]1O [Example 31] | 86%
COC(OC)[C@@]1(C)Oc2ccc([N+](=O)[O-])cc2[C@H](N(Cc2nnn(C)n2)c2ccc(C(F)(F)F)cc2)[C@H]1O [Example 33] | 91%
COC(OC)[C@@]1(C)Oc2ccc([N+](=O)[O-])c(C)c2[C@@H](N(Cc2nnn(C)n2)c2ccc(Cl)cc2)[C@@H]1O [Example 98] | 85%
COC(OC)[C@@]1(C)Oc2ccc([N+](=O)[O-])cc2[C@H](N(Cc2nnn(C)n2)c2cc(C)ccc2O)[C@H]1O [Example 70] | 85%

Required: protective effect on neuron cell: Inhibition (%, 30 μM compound addition), one value per compound below.
1. COC(OC)[C@@]1(C)Oc2ccc(N)cc2[C@H](N(Cc2nnn(C)n2)c2ccc(F)cc2)[C@H]1O [Example 56]
2. COC(OC)[C@@]1(C)Oc2ccc(N)cc2[C@H](N(Cc2nnn(C)n2)c2ccc(Cl)cc2C)[C@H]1O [Example 42]
3. COC(OC)[C@]1(C)Oc2ccc([N+](=O)[O-])cc2[C@@H](N(Cc2nnn(C)n2)c2ccc(OC(F)(F)F)cc2)[C@@H]1O [Example 84]
4. COC(OC)[C@]1(C)Oc2ccc([N+](=O)[O-])cc2[C@H](N(Cc2nnn(C)n2)c2ccc(C(F)(F)F)cc2)[C@H]1O [Example 78]
5. COC(OC)[C@@]1(C)Oc2ccc(N)cc2[C@H](N(Cc2nnn(C)n2)c2ccc(Cl)cc2)[C@H]1O [Example 11]
6. COC(OC)[C@]1(C)Oc2ccc(N)cc2[C@@H](N(Cc2nnn(C)n2)c2ccc(OC(F)(F)F)cc2)[C@@H]1O [Example 85]
7. COC(OC)[C@]1(C)Oc2ccc([N+](=O)[O-])cc2[C@@H](N(Cc2nnn(C)n2)c2ccc(C(F)(F)F)cc2)[C@@H]1O [Example 76]

1: 100%; 2: 103%; 3: 48%; 4: 69%; 5: 93%; 6: 119%; 7: 52%

Value sought for every listed compound: protective effect on neuron cell: Inhibition (%, 30 μM compound addition).
1. COC(OC)[C@@]1(C)Oc2ccc(N)cc2[C@@H](N(Cc2nnn(C)n2)c2ccc(C)cc2)[C@@H]1O [Example 24]
2. COC(OC)[C@]1(C)Oc2ccc([N+](=O)[O-])cc2[C@H](N(Cc2nnn(C)n2)c2ccc(OC(F)(F)F)cc2)[C@H]1O [Example 82]
3. COC(OC)[C@]1(C)Oc2ccc(N)cc2[C@H](N(Cc2nnn(C)n2)c2ccc(OC(F)(F)F)cc2)[C@H]1O [Example 83]

["98%", "69%", "80%"]

###

Tested on: cortical neuron cells
Assay: Protective effect on iron-induced neuronal cell injury (LDH release)
Assay type: cell-based
Settings: 30 μM compound; FeSO4 50 μM, 24 hours; LDH reduction vs control
Description: From the brains of 17˜18 day-old embryos, cortical neuron cells were isolated and then, cultured at 37° C. for 7˜9 days in a 5% CO2 incubator. […] After the said pre-treatment, FeSO4 was added to the medium for a final concentration to be 50 μM. […] The serum level of lactate dehydrogenase released into the medium was measured to assess necrosis of neuronal cell by the oxidative toxicity of iron. […]
Consider the following molecules; for each one, report its protective effect on neuron cell: Inhibition (%, 30 μM compound addition).
Numbers only, in %.

COC(OC)[C@@]1(C)Oc2ccc([N+](=O)[O-])cc2[C@@H](N(Cc2ccccc2)Cc2nnn(C)n2)[C@@H]1O | 59
COC(OC)[C@@]1(C)Oc2ccc([N+](=O)[O-])cc2[C@@H](N(Cc2nnn(C)n2)c2ccc(OC(F)(F)F)cc2)[C@@H]1O | 95
COC(OC)[C@@]1(C)Oc2ccc(N)cc2[C@H](N(Cc2nnn(C)n2)c2ccccc2C(C)C)[C@H]1O | 91
COC[C@]1(C)Oc2ccc([N+](=O)[O-])cc2[C@@H](N(Cc2nnn(C)n2)c2ccc(F)cc2)[C@@H]1O | 69
COC(OC)[C@@]1(C)Oc2ccc(N)cc2[C@H](N(Cc2nnn(C)n2)c2ccc(C)cc2)[C@H]1O | 103

Dear colleague, could you please provide protective effect on neuron cell: Inhibition (%, 30 μM compound addition) for the molecules listed below?
1. COC(OC)[C@@]1(C)Oc2ccc(N)cc2[C@H](N(Cc2nnn(C)n2)c2ccccc2O)[C@H]1O
2. COC(OC)[C@@]1(C)Oc2ccc(N)cc2[C@H](N(Cc2ccccc2)Cc2nnn(C)n2)[C@H]1O

[89, 94]

###

Test system: isolated ischemic rat heart
Assay: Cardioprotective effect in ischemic heart models of rats (Langendorff)
Conditions: 10 μM; time to contracture during global ischemia
What TTC was measured for each of the following?
Answers are plain numbers, in min.

A selection of reference data follows.
COC(OC)[C@@]1(C)Oc2ccc(N)cc2[C@H](N(Cc2nnn(C)n2)c2ccc(OC(F)(F)F)cc2)[C@H]1O [Example 32] | 27.9
CC1(C)Oc2ccc(C#N)cc2[C@@H](NC(=NC#N)Nc2ccc(Cl)cc2)[C@@H]1O [BMS-180448, reference compound] | 27.8
COC(OC)[C@@]1(C)Oc2ccc(N)cc2[C@H](N(Cc2nnn(C)n2)c2ccccc2Cl)[C@H]1O [Example 30] | 27.9

For each of the compounds below, state TTC.
1. COC(OC)[C@@]1(C)Oc2ccc(N)cc2[C@H](N(Cc2nnn(C)n2)c2ccccc2O)[C@H]1O [Example 61]
2. COC(OC)[C@@]1(C)Oc2ccc([N+](=O)[O-])cc2[C@H](N(Cc2nnn(C)n2)c2cc(C)ccc2O)[C@H]1O [Example 70]
3. COC(OC)[C@@]1(C)Oc2ccc([N+](=O)[O-])cc2[C@@H](N(Cc2nnn(C)n2)c2ccc(Cl)cc2)[C@@H]1O [Example 1]
4. COC(OC)[C@@]1(C)Oc2ccc(N)cc2[C@H](N(Cc2nnn(C)n2)c2ccc(Cl)cc2)[C@H]1O [Example 11]

[20.0, 22.0, 24.8, 19.9]

###

Test system: cortical neuron cells
Test: Protective effect on iron-induced neuronal cell injury (LDH release)
Format: cell-based
Settings: 30 μM compound; FeSO4 50 μM, 24 hours; LDH reduction vs control
Consider the following compounds; for each one, report its protective effect on neuron cell: Inhibition (%, 30 μM compound addition).
Answers are plain numbers, in %.

Illustrative cases are given below, each with its answer.
COC(OC)[C@@]1(C)Oc2ccc([N+](=O)[O-])cc2[C@H](N(Cc2nnn(C)n2)c2ccccc2O)[C@H]1O | 87
COC(=O)c1cccc(N(Cc2nnn(C)n2)[C@H]2c3cc(N)ccc3O[C@](C)(C(OC)OC)[C@@H]2O)c1 | 77
COC(OC)[C@@]1(C)Oc2ccc(N)cc2[C@@H](N(Cc2nnn(C)n2)c2ccc(C(F)(F)F)cc2)[C@@H]1O | 125
COC(OC)[C@@]1(C)Oc2ccc(N)cc2[C@H](N(Cc2nnn(C)n2)c2cccc(Cl)c2)[C@H]1O | 97

Provide protective effect on neuron cell: Inhibition (%, 30 μM compound addition) for all items below, preserving their order.
1. COC(OC)[C@@]1(C)Oc2ccc(N)cc2[C@@H](N(Cc2nnn(C)n2)c2cccc(Cl)c2)[C@@H]1O
2. COC(OC)[C@@]1(C)Oc2ccc(N)cc2[C@@H](N(Cc2nnnn2C)c2ccc(Cl)cc2)[C@@H]1O
3. COC(OC)[C@@]1(C)Oc2ccc([N+](=O)[O-])cc2[C@@H](N(Cc2nnn(C)n2)c2ccc(Cl)cc2)[C@@H]1O

[97, 110, 71]

###

Test system: cortical neuron cells
Test: Protective effect on iron-induced neuronal cell injury (LDH release)
Type: cell-based
Settings: 30 μM compound; FeSO4 50 μM, 24 hours; LDH reduction vs control
Please respond with reported protective effect on neuron cell: Inhibition (%, 30 μM compound addition) for every item in the list.
Answers are plain numbers, in %.

Below, each entry is followed by its recorded protective effect on neuron cell: Inhibition (%, 30 μM compound addition) result.
COC(OC)[C@@]1(C)Oc2ccc(N)cc2[C@H](N(Cc2nnn(C)n2)c2ccc(OC(F)(F)F)cc2)[C@H]1O | 108
COC(OC)[C@]1(C)Oc2ccc(N)cc2[C@@H](N(Cc2nnn(C)n2)c2ccc(C(F)(F)F)cc2)[C@@H]1O | 111
COC(OC)[C@@]1(C)Oc2ccc(N)cc2[C@H](N(Cc2nnn(C)n2)c2ccccc2Cl)[C@H]1O | 103
COC(OC)[C@@]1(C)Oc2ccc(N)cc2[C@@H](N(Cc2nnn(C)n2)c2ccc(Cl)cc2)[C@@H]1O | 103
COC(OC)[C@@]1(C)Oc2ccc([N+](=O)[O-])cc2[C@H](N(Cc2nnn(C)n2)c2cccc(Cl)c2)[C@H]1O | 83
CCOC(=O)c1ccc(N(Cc2nnn(C)n2)[C@H]2c3cc(N)ccc3O[C@](C)(C(OC)OC)[C@@H]2O)cc1 | 98

Then this compound:
Given COC(OC)[C@@]1(C)Oc2ccc([N+](=O)[O-])cc2[C@@H](N(Cc2nnn(C)n2)c2ccc(C(F)(F)F)cc2)[C@@H]1O , respond with its protective effect on neuron cell: Inhibition (%, 30 μM compound addition).
90
